Biological target: cIAP-1 BIR-3 (Homo sapiens, UniProt Q13490)
Construct: 40 nM of the respective IAP BIR3
Sequence (Q13490 253-363 limits assumed): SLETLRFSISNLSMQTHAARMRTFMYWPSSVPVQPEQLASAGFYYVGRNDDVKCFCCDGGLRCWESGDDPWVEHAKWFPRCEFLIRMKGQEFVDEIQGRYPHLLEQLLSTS
Experiment: Fluorescence polarization binding to cIAP-1 BIR-3 with labeled peptide AbuRPF-K(5-Fam)-NH2
Settings: cIAP-1 BIR-3, 40 nM BIR3, 5 nM labeled peptide, 15 min RT, pH 7.5; read-out: cIAP1, nM (binding affinity KD, as range)
The reader will find reported Kd values listed item by item below.
quantity-kind: Kd

CN[C@@H](C)C(=O)N[C@H](C(=O)N1CC[C@@H]2[C@H]1[C@@H](C(=O)Nc1cccc3ccccc13)CN2C(=O)CNC(=O)C(=O)NCC(=O)N1C[C@H](C(=O)Nc2cccc3ccccc23)[C@@H]2[C@H]1CCN2C(=O)[C@@H](NC(=O)[C@H](C)NC)C(C)(C)C)C(C)(C)C [Example 53]	< 100 nM
CN[C@@H](C)C(=O)N[C@H](C(=O)N1CC[C@@H]2[C@H]1[C@@H](C(=O)NCCc1ccccc1)CN2S(C)(=O)=O)C1CCCCC1 [Example 16]	< 100 nM

###

Molecular target: XIAP BIR-3 (Homo sapiens)
Construct: 40 nM of the respective IAP BIR3
Assay: Fluorescence polarization binding to XIAP BIR-3 with labeled peptide AbuRPF-K(5-Fam)-NH2
Conditions: XIAP BIR-3, 40 nM BIR3, 5 nM labeled peptide, 15 min RT, pH 7.5; read-out: XIAP, nM (binding affinity KD, as range)
quantity-kind: Kd

CN[C@@H](C)C(=O)N[C@H](C(=O)N1CC[C@@H]2[C@H]1[C@@H](C(=O)Nc1cccc3ncccc13)CN2S(C)(=O)=O)C(C)(C)C	< 100 nM
CN[C@@H](C)C(=O)N[C@H](C(=O)N1CC[C@@H]2[C@H]1[C@@H](C(=O)N[C@H]1CCc3ccccc31)CN2S(C)(=O)=O)C1CCCCC1	100 to 1000 nM
CN[C@@H](C)C(=O)N[C@H](C(=O)N1CC[C@@H]2[C@H]1[C@@H](C(=O)N[C@H]1CCCc3ccccc31)CN2S(C)(=O)=O)C1CCCCC1	< 100 nM
CN[C@@H](C)C(=O)N[C@H](C(=O)N1CC[C@@H]2[C@H]1[C@@H](C(=O)NCc1ccccc1)CN2C(C)=O)C(C)(C)C	< 100 nM
CNC(=O)N1C[C@H](C(=O)N[C@@H]2CCCc3ccccc32)[C@@H]2[C@H]1CCN2C(=O)[C@@H](NC(=O)[C@H](C)NC)C(C)(C)C	< 100 nM
CN[C@@H](C)C(=O)N[C@H](C(=O)N1CC[C@@H]2[C@H]1[C@@H](C(=O)N[C@@H]1CCCc3ccccc31)CN2C(C)=O)C1CCCCC1	< 100 nM

###

Let's look at some compounds and their measured Kd.
Biological target: XIAP BIR-3 (Homo sapiens)
Construct: 40 nM of the respective IAP BIR3
Assay: Fluorescence polarization binding to XIAP BIR-3 with labeled peptide AbuRPF-K(5-Fam)-NH2
Settings: XIAP BIR-3, 40 nM BIR3, 5 nM labeled peptide, 15 min RT, pH 7.5; read-out: XIAP, nM (binding affinity KD, as range)
quantity-kind: Kd

CN[C@@H](C)C(=O)N[C@H](C(=O)N1CC[C@@H]2[C@H]1[C@@H](C(=O)Nc1cccc3ccccc13)CN2C(=O)CNC(=O)C(=O)NCC(=O)N1C[C@H](C(=O)Nc2cccc3ccccc23)[C@@H]2[C@H]1CCN2C(=O)[C@@H](NC(=O)[C@H](C)NC)C(C)(C)C)C(C)(C)C [Example 53]	< 100 nM
CN[C@@H](C)C(=O)N[C@H](C(=O)N1CC[C@@H]2[C@H]1[C@@H](C(=O)N[C@@H](C)c1ccccc1)CN2S(C)(=O)=O)C1CCCCC1 [Example 11]	< 100 nM
CN[C@@H](C)C(=O)N[C@H](C(=O)N1CC[C@@H]2[C@H]1[C@@H](C(=O)Nc1ccc3ccccc3c1)CN2S(C)(=O)=O)C(C)(C)C [Example 25]	< 100 nM

###

Measured Kd accompanies every entry in the list below.
Target: XIAP BIR-3 (Homo sapiens, UniProt P98170)
Construct: 40 nM of the respective IAP BIR3
Sequence (P98170 241-356 limits assumed): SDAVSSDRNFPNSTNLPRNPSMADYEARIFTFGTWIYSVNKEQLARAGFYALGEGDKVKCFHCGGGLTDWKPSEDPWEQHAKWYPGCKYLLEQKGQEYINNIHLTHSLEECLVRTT
Test: Fluorescence polarization binding to XIAP BIR-3 with labeled peptide AbuRPF-K(5-Fam)-NH2
Settings: XIAP BIR-3, 40 nM BIR3, 5 nM labeled peptide, 15 min RT, pH 7.5; read-out: XIAP, nM (binding affinity KD, as range)
quantity-kind: Kd

CN[C@@H](C)C(=O)N[C@H](C(=O)N1CC[C@@H]2[C@H]1[C@@H](C(=O)N[C@@H]1CCCc3ccccc31)CN2S(C)(=O)=O)C(C)(C)C	< 100 nM
CN[C@@H](C)C(=O)N[C@H](C(=O)N1CC[C@@H]2[C@H]1[C@@H](C(=O)N1CCc3ccccc31)CN2S(C)(=O)=O)C1CCCCC1	100 to 1000 nM
CNC(=O)N1C[C@H](C(=O)Nc2cccc3ccccc23)[C@@H]2[C@H]1CCN2C(=O)[C@@H](NC(=O)[C@H](C)NC)C(C)(C)C	< 100 nM
CN[C@@H](C)C(=O)N[C@H](C(=O)N1CC[C@@H]2[C@H]1[C@@H](C(=O)N(C)Cc1ccccc1)CN2S(C)(=O)=O)C1CCCCC1	< 100 nM
CN[C@@H](C)C(=O)N[C@H](C(=O)N1CC[C@@H]2[C@H]1[C@@H](C(=O)Nc1cccc3cccnc13)CN2S(C)(=O)=O)C(C)(C)C	100 to 1000 nM
CN[C@@H](C)C(=O)N[C@H](C(=O)N1CC[C@@H]2[C@H]1[C@@H](C(=O)Nc1ccc(F)cc1)CN2C(=O)CNC(=O)C(=O)NCC(=O)N1C[C@H](C(=O)Nc2ccc(F)cc2)[C@@H]2[C@H]1CCN2C(=O)[C@@H](NC(=O)[C@H](C)NC)C(C)(C)C)C(C)(C)C	< 100 nM
CN[C@@H](C)C(=O)N[C@H](C(=O)N1CC[C@@H]2[C@H]1[C@@H](C(=O)Nc1nccc3ccccc13)CN2S(C)(=O)=O)C(C)(C)C	< 100 nM
CN[C@@H](C)C(=O)N[C@H](C(=O)N1CC[C@@H]2[C@H]1[C@@H](C(=O)Nc1cccc3ccncc13)CN2S(C)(=O)=O)C(C)(C)C	100 to 1000 nM
CN[C@@H](C)C(=O)N[C@H](C(=O)N1CC[C@@H]2[C@H]1[C@@H](C(=O)N[C@@H]1CCCc3ccccc31)CN2C(C)=O)C(C)(C)C	< 100 nM
CN[C@@H](C)C(=O)N[C@H](C(=O)N1CC[C@@H]2[C@H]1[C@@H](C(=O)N1Cc3ccccc3C1)CN2S(C)(=O)=O)C1CCCCC1	< 100 nM
CN[C@@H](C)C(=O)N[C@H](C(=O)N1CC[C@@H]2[C@H]1[C@@H](C(=O)NCc1ccc(F)cc1)CN2C(C)=O)C(C)(C)C	< 100 nM
CN[C@@H](C)C(=O)N[C@H](C(=O)N1CC[C@@H]2[C@H]1[C@@H](C(=O)NCc1ccc(F)cc1)CN2S(C)(=O)=O)C1CCCCC1	< 100 nM
CN[C@@H](C)C(=O)N[C@H](C(=O)N1CC[C@@H]2[C@H]1[C@@H](C(=O)Nc1ccc3ncccc3c1)CN2S(C)(=O)=O)C(C)(C)C	100 to 1000 nM
CN[C@@H](C)C(=O)N[C@H](C(=O)N1CC[C@@H]2[C@H]1[C@@H](C(=O)NCc1ccccc1)CN2S(C)(=O)=O)C1CCCCC1	< 100 nM
CN[C@@H](C)C(=O)N[C@H](C(=O)N1CC[C@@H]2[C@H]1[C@@H](C(=O)NC(c1ccccc1)c1ccccc1)CN2S(C)(=O)=O)C1CCCCC1	< 100 nM
CN[C@@H](C)C(=O)N[C@H](C(=O)N1CC[C@@H]2[C@H]1[C@@H](C(=O)NCc1ccc(F)cc1)CN2S(C)(=O)=O)C(C)(C)C	< 100 nM
CN[C@@H](C)C(=O)N[C@H](C(=O)N1CC[C@@H]2[C@H]1[C@@H](C(=O)N[C@@H]1CCCc3ccccc31)CN2S(C)(=O)=O)C1CCCCC1	< 100 nM
CN[C@@H](C)C(=O)N[C@H](C(=O)N1CC[C@@H]2[C@H]1[C@@H](C(=O)NCC1CCCCC1)CN2S(C)(=O)=O)C1CCCCC1	< 100 nM
CNC(=O)N1C[C@H](C(=O)NCc2ccc(F)cc2)[C@@H]2[C@H]1CCN2C(=O)[C@@H](NC(=O)[C@H](C)NC)C(C)(C)C	< 100 nM
CN[C@@H](C)C(=O)N[C@H](C(=O)N1CC[C@@H]2[C@H]1[C@@H](C(=O)Nc1cccc3ccccc13)CN2S(C)(=O)=O)C(C)(C)C	< 100 nM
CN[C@@H](C)C(=O)N[C@H](C(=O)N1CC[C@@H]2[C@H]1[C@@H](C(=O)Nc1ccccc1)CN2S(C)(=O)=O)C1CCCCC1	100 to 1000 nM
